meta.source: ChEMBL document CHEMBL4622983

Each item that follows carries a reported IC50.
Target Entity: Phospholipase A and acyltransferase 4 (Homo sapiens, UniProt Q9UL19)
Sequence (Q9UL19 whole entry): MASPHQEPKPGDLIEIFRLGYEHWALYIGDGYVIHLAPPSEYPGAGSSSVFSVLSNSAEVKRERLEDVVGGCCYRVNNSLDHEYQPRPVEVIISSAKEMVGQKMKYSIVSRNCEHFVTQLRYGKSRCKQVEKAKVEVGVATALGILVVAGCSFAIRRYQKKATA
Assay Remarks: Inhibition of full-length C-terminal FLAG-tagged human PLAAT4 expressed in HEK293T cell lysate preincubated for 30 mins followed by MB064 addition and measured after 20 mins by SDS-PAGE based ABPP analysis

Consider the worked cases shown below.
molecule=O=C(CCc1ccccc1)[C@H](F)C(=O)NCc1ccccc1 data_value="> 10 µM"
molecule="O=C(NCc1ccccc1)C(F)(F)C(O)CCc1ccccc1 (stereo not drawn)" data_value="> 10 µM"

Prompt: Query IC50 on Phospholipase A and acyltransferase 4 (Homo sapiens, UniProt Q9UL19) for CN1CCN(C(=O)C(=O)CCc2ccc(Cl)cc2)CC1
Response: > 10 µM
